assay: Aqueous solubility in phosphate buffer at pH 6.5 by lyophilization solubility assay; format: physicochemical
outcome measure: log10 solubility (log10 of the value in µg/mL)
Annotation: log10 of solubility, µg/mL basis.

Ask: // Input: CC(=O)c1ccc(N2CCN(C(=O)c3cc(S(N)(=O)=O)ccc3N3CCOCC3)CC2)c(F)c1 . Output its log10 solubility only.
Reply: 2.49

Ask: // Input: CS(=O)(=O)c1ccc(N2CCOCC2)c(C(=O)N2CCN(c3ccc(C(F)(F)F)cc3)CC2)c1 . Output its log10 solubility only.
Reply: 0.48

Ask: // Input: CNS(=O)(=O)c1ccc(N2CCOCC2)c(C(=O)N2CCN(c3ccc(C(C)=O)cc3F)CC2)c1 . Output its log10 solubility only.
Reply: 1.48

Ask: // Input: CC(=O)c1ccc(N2CCN(C(=O)c3cc(S(C)(=O)=O)ccc3N3CCOCC3)CC2)c(F)c1 . Output its log10 solubility only.
Reply: 1.48

Ask: // Input: CS(=O)(=O)c1ccc(OCC2CC2)c(C(=O)N2CCN(c3ccc(C#N)cc3F)CC2)c1 . Output its log10 solubility only.
Reply: 1.49

Ask: // Input: CC(C)Oc1ccc(S(C)(=O)=O)cc1C(=O)N1CCN(c2ccc(C(F)(F)F)cc2)CC1 . Output its log10 solubility only.
Reply: 1.79

Ask: // Input: CC(=O)c1ccc(N2CCN(C(=O)c3cc([N+](=O)[O-])ccc3N3CCOCC3)CC2)c(F)c1 . Output its log10 solubility only.
Reply: 0.95
